Biological target: T1, human LILRB2 expressed on cells (293T-LILRB2, CHO-K1-LILRB2) (human, UniProt Q8N423 22-597)
T1 construct: whole, on cells; the cell line is named under assay; also called HEK293T-LILRB2
T1 sequence (Q8N423 22-597): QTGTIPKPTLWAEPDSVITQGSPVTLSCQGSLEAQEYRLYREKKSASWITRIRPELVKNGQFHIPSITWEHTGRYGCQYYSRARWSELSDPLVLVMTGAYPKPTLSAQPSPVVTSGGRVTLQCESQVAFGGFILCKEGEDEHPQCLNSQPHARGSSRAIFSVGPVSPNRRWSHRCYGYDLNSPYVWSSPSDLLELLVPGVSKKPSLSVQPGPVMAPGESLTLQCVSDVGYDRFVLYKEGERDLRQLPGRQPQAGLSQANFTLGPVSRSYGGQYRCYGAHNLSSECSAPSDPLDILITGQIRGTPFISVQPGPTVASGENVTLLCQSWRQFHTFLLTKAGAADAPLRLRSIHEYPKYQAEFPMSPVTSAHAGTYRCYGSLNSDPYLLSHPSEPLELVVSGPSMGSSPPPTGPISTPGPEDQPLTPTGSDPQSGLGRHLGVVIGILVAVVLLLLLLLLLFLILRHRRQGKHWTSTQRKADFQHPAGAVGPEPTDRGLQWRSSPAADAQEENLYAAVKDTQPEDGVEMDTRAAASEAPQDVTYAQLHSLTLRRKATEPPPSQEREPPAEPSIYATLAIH
Assay: flow cytometry, 293T-LILRB2 cells
recorded-metric: Bmax
Lab note: jot down the number only; don't add units.

Request: Recorded Bmax for Antibody 2E1_GB11 (antibody, V domains shown) VH: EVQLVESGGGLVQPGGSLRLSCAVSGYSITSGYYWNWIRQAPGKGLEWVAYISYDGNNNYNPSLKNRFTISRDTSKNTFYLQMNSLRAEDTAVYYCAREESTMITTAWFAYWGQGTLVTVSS VL: DIQMTQSPSSLSASVGDRVTITCRASENIYSNLAWYQQKPGKAPKLLIYGATNLALGVPSRFSGSGSGTDYTLTISSLQPEDFATYYCQHFWDTPYTFGQGTKVEIK , please?
Result: 627000

Request: Can you look up the measured Bmax of Antibody 2E1_FF4 (antibody, V domains shown) VH: EVQLVESGGGLVQPGGSLRLSCAVSGYSITSGYYWNWIRQAPGKGLEWVAYISYDGNNWYNPSLKNRFTISRDTSKNTFYLQMNSLRAEDTAVYYCAREESTMITTAWFAYWGQGTLVTVSS VL: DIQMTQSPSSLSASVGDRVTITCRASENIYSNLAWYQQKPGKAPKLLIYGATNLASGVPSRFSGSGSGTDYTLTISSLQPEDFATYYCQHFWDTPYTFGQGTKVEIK for me?
Result: 462000

Now look at this entry.
Request: // lookup Bmax for Antibody 2E1_FC11 (antibody, V domains shown, also called A16) VH: EVQLVESGGGLVQPGGSLRLSCAVSGYSITSGYYWNWIRQAPGKGLEWVAYISYDGNINYNPSLKNRFTISRDTSKNTFYLQMNSLRAEDTAVYYCAREESTMITTAWFAYWGQGTLVTVSS VL: DIQMTQSPSSLSASVGDRVTITCRASENIYSNLAWYQQKPGKAPKLLIYGATNLASGVPSRFSGSGSGTDYTLTISSLQPEDFATYYCQHFWDYPYTFGQGTKVEIK
Result: 461000
